Listing: IC50 of selected molecules
Test system: CEM-SS cells
TEST_METHOD_NOTES: cells
Type: cell-based
RUN_PARAMETERS: Table 2; 50% cytotoxicity; read-out: IC50

Record excerpt, results attached:
NS(=O)(=O)c1ccc(CCn2sc3ccccc3c2=O)cc1 [Compound 24 BITA] :: 45.5 µM
NS(=O)(=O)c1ccc(CCNC(=O)c2ccccc2SSc2ccccc2C(=O)NCCc2ccc(S(N)(=O)=O)cc2)cc1 [Compound 24 D] :: 52.8 µM

As a next step, examine the molecule that follows.
// IC50 value for NS(=O)(=O)c1ccc(NC(=O)CNC(=O)c2ccccc2SSc2ccccc2C(=O)NCC(=O)Nc2ccc(S(N)(=O)=O)cc2)cc1 [Compound 25 D] : 17.6 µM

* * *

Tested on: HIV-1RF
TEST_METHOD_NOTES: XTT cytoprotection assay (antiviral activity)
Format: cell-based
RUN_PARAMETERS: Human immunodeficiency virus 1; Table 6; read-out: EC50 %
MEASURE_NAME: EC50

Result for O=C(O)CCCC[n+]1ccccc1.[Br-] [Compound 53, 5-pyridiniovaleric acid] , tested on HIV-1RF, EC50: > 316 µM

* * *

Test system: HIV-1RF
TEST_METHOD_NOTES: XTT cytoprotection assay (antiviral activity)
Format: cell-based
RUN_PARAMETERS: Table 6; read-out: EC50 %
MEASURE_NAME: pEC50
To interpret pEC50, take it as minus log10 of a concentration measured in moles per litre.

Value sought: pEC50, system HIV-1RF, item O=C(CCCCBr)Sc1ccccc1C(=O)Nc1ccc(S(=O)(=O)c2ccc([N+](=O)[O-])cc2)cc1 . Result: 5.80

* * *

Catalogue of pIC50 values
System: virus attachment
TEST_METHOD_NOTES: cell-based p24 attachment assay
Design: species or system HIV-1
RUN_PARAMETERS: Human immunodeficiency virus 1; Table 7; high dose test 100 μM; read-out: Attachment I50
pIC50: −log10 of the molar value.

CC(=O)NS(=O)(=O)c1ccc(NC(=O)c2ccccc2SC(=O)CCCCBr)cc1 :: < 4.00

Lab note: measured pIC50 of CC(=O)NS(=O)(=O)c1ccc(NC(=O)c2ccccc2SC(=O)CCCC[n+]2ccccc2)cc1 was < 4.00

* * *

Entries annotated with measured zinc finger reactivity / zinc ejection rate
MEASUREMENT_TARGET: recombinant HIV-1 NCp7 protein (Human immunodeficiency virus type 1 group M subtype B)
Construct: recombinant HIV-1 NCp7 protein
TEST_METHOD_NOTES: Trp37 zinc finger fluorescence (zinc ejection) assay
Format: biochemical
The response must be a number in RFU/min with no trailing unit.

# count of solved cases: 2
Nc1ccc(S(=O)(=O)c2ccc(NC(=O)c3ccccc3SSc3ccccc3C(=O)Nc3ccc(S(=O)(=O)c4ccc(N)cc4)cc3)cc2)cc1 :: 3.3
O=C(O)CCCC[n+]1ccccc1.[Br-] :: 4

Kindly note the recorded zinc finger reactivity / zinc ejection rate for CC(=O)Nc1ccc(S(=O)(=O)c2ccc(NC(=O)c3ccccc3SSc3ccccc3C(=O)Nc3ccc(S(=O)(=O)c4ccc(NC(C)=O)cc4)cc3)cc2)cc1 , which is 5.9

response.value for NS(=O)(=O)c1ccc(CNC(=O)c2ccccc2SSc2ccccc2C(=O)NCc2ccc(S(N)(=O)=O)cc2)cc1 (field: zinc finger reactivity / zinc ejection rate) = 3.3

The reported zinc finger reactivity / zinc ejection rate of the molecule CC(=O)Nc1cccc(S(=O)(=O)c2cccc(NC(=O)c3ccccc3SSc3ccccc3C(=O)Nc3cccc(S(=O)(=O)c4cccc(NC(C)=O)c4)c3)c2)c1 was 2

Entry NS(=O)(=O)c1ccc(NC(=O)CNC(=O)c2ccccc2SSc2ccccc2C(=O)NCC(=O)Nc2ccc(S(N)(=O)=O)cc2)cc1 ; zinc finger reactivity / zinc ejection rate = 7.9

zinc finger reactivity / zinc ejection rate recorded for this molecule, Nc1cccc(S(=O)(=O)c2cccc(NC(=O)c3ccccc3SSc3ccccc3C(=O)Nc3cccc(S(=O)(=O)c4cccc(N)c4)c3)c2)c1 , is 0.92

Note to self: zinc finger reactivity / zinc ejection rate recorded for CC(=O)NS(=O)(=O)c1ccc(NC(=O)c2ccccc2SC(=O)CCCC[n+]2ccccc2)cc1 was 3.6

* * *

MEASUREMENT_TARGET: recombinant HIV-1 NCp7 protein (Human immunodeficiency virus type 1 group M subtype B, UniProt P03347)
Construct: recombinant HIV-1 NCp7 protein
TEST_METHOD_NOTES: Trp37 zinc finger fluorescence (zinc ejection) assay
Type: biochemical
RUN_PARAMETERS: Table 3; average decrease in relative fluorescence
Reported values of Zinc Finger Reactivity RFU/min for individual entries
Express the result in RFU/min but write the number alone.

Guide cases for Zinc Finger Reactivity RFU/min, answers given:
O=C(Nc1ccc(S(=O)(=O)c2ccc([N+](=O)[O-])cc2)cc1)c1ccccc1SSc1ccccc1C(=O)Nc1ccc(S(=O)(=O)c2ccc([N+](=O)[O-])cc2)cc1 :: 2.9
O=C(Nc1ccc(S(=O)(=O)c2ccc(NS(=O)(=O)Cc3ccccc3[N+](=O)[O-])cc2)cc1)c1ccccc1SSc1ccccc1C(=O)Nc1ccc(S(=O)(=O)c2ccc(NS(=O)(=O)Cc3ccccc3[N+](=O)[O-])cc2)cc1 :: 1.5

--- query ---
Sample O=c1c2ccccc2sn1-c1ccc(S(=O)(=O)c2ccc(NS(=O)(=O)Cc3ccccc3[N+](=O)[O-])cc2)cc1 ; Zinc Finger Reactivity RFU/min observed: 2

* * *

System: HIV-1RF
TEST_METHOD_NOTES: XTT cytoprotection assay (antiviral activity)
Format: cell-based
RUN_PARAMETERS: Human immunodeficiency virus 1; Table 1; read-out: EC50
MEASURE_NAME: pEC50
Please keep in mind that pEC50 is minus log10 of the molar concentration; only the number is needed.

Lab note: CC(=O)NS(=O)(=O)c1ccc(-n2sc3ccccc3c2=O)cc1 gave pEC50 of 4.90

* * *

MEASUREMENT_TARGET: NCp7 (Human immunodeficiency virus type 1 group M subtype B)
MEASURE_NAME: IC50
Give your result as the value with the unit written after it.

Documented IC50 of O=C(CCCC[n+]1ccccc1)Sc1ccccc1C(=O)Nc1ccc(S(=O)(=O)c2ccc([N+](=O)[O-])cc2)cc1 [Compound 47] : 100 µM

* * *

Tested on: CEM-SS cells
TEST_METHOD_NOTES: cells
Type: cell-based
RUN_PARAMETERS: read-out: toxicity / IC50
Procedure: Agents Chemother. […] Briefly, cells are infected with HIV-1 RF (or other virus to be tested) in the presence of various dilutions of test compounds (thiolesters and controls). The cultures are incubated for seven days. […] The cell death is measured by XTT dye reduction. XTT is a soluble tetrazolium dye that measures mitochondrial energy output, similar to MTT. […]
MEASURE_NAME: pIC50
Reminder that pIC50 is minus the log10 of a molar concentration.

Consider the reported pIC50 for these compounds:
CC(=O)Nc1ccc(S(=O)(=O)c2ccc(NC(=O)c3ccccc3SSc3ccccc3C(=O)Nc3ccc(S(=O)(=O)c4ccc(NC(C)=O)cc4)cc3)cc2)cc1 [Compound 27 D] :: 3.80
NS(=O)(=O)c1ccc(CNC(=O)c2ccccc2SSc2ccccc2C(=O)NCc2ccc(S(N)(=O)=O)cc2)cc1 [Compound 23 D] :: 4.71
NS(=O)(=O)c1ccc(Cn2sc3ccccc3c2=O)cc1 [Compound 23 BITA] :: 4.27

API: the following record is the query input.
Short answer on CEM-SS cells for NS(=O)(=O)c1ccc(NS(=O)(=O)c2ccc(NC(=O)c3ccccc3SSc3ccccc3C(=O)Nc3ccc(S(=O)(=O)Nc4ccc(S(N)(=O)=O)cc4)cc3)cc2)cc1 [Compound 22 D] , pIC50: 4.37

* * *

Item-by-item account of EC50
Tested on: HIV-1RF
TEST_METHOD_NOTES: XTT cytoprotection assay (antiviral activity)
Type: cell-based
RUN_PARAMETERS: Table 3; read-out: EC50
Kindly format the answer as number then unit.

Consider the reported EC50 for these molecules:
CC(=O)Nc1ccc(S(=O)(=O)Nc2ccc(S(=O)(=O)c3ccc(-n4sc5ccccc5c4=O)cc3)cc2)cc1 [Compound 28 BITA] :: 9.6 µM
O=C(Nc1ccc(S(=O)(=O)c2ccc(NC(=O)c3ccccc3SSc3ccccc3C(=O)Nc3ccc(S(=O)(=O)c4ccc(NC(=O)c5ccc([N+](=O)[O-])cc5)cc4)cc3)cc2)cc1)c1ccc([N+](=O)[O-])cc1 [Compound 32 D] :: 78 µM
Nc1ccc(S(=O)(=O)c2ccc(NC(=O)c3ccccc3SSc3ccccc3C(=O)Nc3ccc(S(=O)(=O)c4ccc(N)cc4)cc3)cc2)cc1 [Compound 26 D] :: 4.3 µM
O=c1c2ccccc2sn1-c1ccc(S(=O)(=O)c2ccc(NS(=O)(=O)Cc3ccccc3[N+](=O)[O-])cc2)cc1 [Compound 34 BITA] :: 3.2 µM
CC(=O)Nc1ccc(S(=O)(=O)c2ccc(NC(=O)c3ccccc3SSc3ccccc3C(=O)Nc3ccc(S(=O)(=O)c4ccc(NC(C)=O)cc4)cc3)cc2)cc1 [Compound 27 D] :: 1.5 µM

Moving on to another molecule below.
The reported value for CC(=O)Nc1ccc(S(=O)(=O)Nc2ccc(S(=O)(=O)c3ccc(NC(=O)c4ccccc4SSc4ccccc4C(=O)Nc4ccc(S(=O)(=O)c5ccc(NS(=O)(=O)c6ccc(NC(C)=O)cc6)cc5)cc4)cc3)cc2)cc1 [Compound 28 D] in terms of EC50 is 1 µM
